Cited source for all entries: ChEMBL document CHEMBL1133363

Target: Integrin alpha-5/beta-1 (Homo sapiens, UniProt P05556+P08648)
Sequence (P05556 21-798 limits assumed): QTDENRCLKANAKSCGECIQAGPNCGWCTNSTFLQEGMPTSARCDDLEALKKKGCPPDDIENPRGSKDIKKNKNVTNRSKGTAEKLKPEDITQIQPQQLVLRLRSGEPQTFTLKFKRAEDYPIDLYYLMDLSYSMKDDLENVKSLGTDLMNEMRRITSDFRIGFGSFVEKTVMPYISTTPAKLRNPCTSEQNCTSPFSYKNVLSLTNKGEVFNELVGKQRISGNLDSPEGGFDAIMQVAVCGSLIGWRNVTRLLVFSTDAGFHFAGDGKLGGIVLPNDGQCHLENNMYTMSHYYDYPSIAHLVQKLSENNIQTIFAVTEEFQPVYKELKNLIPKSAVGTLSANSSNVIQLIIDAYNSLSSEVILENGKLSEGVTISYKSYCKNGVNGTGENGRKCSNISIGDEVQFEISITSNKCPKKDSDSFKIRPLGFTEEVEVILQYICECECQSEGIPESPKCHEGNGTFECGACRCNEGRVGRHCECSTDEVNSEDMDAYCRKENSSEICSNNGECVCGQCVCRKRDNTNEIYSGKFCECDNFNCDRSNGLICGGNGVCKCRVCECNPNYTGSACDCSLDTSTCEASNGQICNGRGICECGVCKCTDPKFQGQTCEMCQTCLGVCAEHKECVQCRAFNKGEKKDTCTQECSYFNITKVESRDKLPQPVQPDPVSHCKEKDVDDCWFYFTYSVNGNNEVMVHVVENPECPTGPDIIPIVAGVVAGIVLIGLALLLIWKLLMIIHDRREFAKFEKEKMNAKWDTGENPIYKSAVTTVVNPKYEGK
Sequence (P08648 42-894 limits assumed): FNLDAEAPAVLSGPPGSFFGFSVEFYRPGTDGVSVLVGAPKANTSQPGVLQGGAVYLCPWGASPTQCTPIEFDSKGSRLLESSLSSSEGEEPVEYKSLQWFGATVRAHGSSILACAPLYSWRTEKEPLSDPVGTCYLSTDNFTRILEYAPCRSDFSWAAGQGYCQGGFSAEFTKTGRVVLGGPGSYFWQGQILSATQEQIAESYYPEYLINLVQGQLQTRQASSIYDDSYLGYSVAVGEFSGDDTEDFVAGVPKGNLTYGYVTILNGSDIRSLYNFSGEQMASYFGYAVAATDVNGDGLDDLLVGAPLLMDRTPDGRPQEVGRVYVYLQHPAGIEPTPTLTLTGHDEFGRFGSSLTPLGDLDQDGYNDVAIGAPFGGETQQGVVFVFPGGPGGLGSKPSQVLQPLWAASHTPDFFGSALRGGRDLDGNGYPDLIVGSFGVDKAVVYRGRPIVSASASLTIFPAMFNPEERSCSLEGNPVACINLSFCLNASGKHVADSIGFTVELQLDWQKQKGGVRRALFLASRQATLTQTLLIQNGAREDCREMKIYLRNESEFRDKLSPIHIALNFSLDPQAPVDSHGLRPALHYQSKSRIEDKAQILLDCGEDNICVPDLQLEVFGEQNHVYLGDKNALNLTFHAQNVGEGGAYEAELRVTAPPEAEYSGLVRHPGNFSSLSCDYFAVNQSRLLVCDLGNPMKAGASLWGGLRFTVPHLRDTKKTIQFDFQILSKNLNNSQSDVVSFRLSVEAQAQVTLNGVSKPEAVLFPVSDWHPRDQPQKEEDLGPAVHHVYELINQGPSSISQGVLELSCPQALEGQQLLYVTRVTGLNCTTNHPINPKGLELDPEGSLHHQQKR
Sequence (P08648 895-1049 limits assumed): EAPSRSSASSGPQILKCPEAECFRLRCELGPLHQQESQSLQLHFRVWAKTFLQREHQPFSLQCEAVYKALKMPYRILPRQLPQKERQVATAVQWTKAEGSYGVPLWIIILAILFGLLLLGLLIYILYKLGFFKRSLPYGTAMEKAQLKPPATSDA
Experiment: Inhibition of alpha5-beta1 integrin mediated cell adhesion
Assay type: protein-complex assay
pIC50: −log10 of the molar value.

{"structure-notation": "CC(=O)N1CSC[C@@H]1C(=O)N[C@@H](Cc1ccc(OCc2c(Cl)cccc2Cl)cc1)C(=O)O", "pIC50": "< 3.10"}

###

Target: Integrin alpha-4/beta-1 (Homo sapiens, UniProt P05556+P13612)
Sequence (P05556 whole entry): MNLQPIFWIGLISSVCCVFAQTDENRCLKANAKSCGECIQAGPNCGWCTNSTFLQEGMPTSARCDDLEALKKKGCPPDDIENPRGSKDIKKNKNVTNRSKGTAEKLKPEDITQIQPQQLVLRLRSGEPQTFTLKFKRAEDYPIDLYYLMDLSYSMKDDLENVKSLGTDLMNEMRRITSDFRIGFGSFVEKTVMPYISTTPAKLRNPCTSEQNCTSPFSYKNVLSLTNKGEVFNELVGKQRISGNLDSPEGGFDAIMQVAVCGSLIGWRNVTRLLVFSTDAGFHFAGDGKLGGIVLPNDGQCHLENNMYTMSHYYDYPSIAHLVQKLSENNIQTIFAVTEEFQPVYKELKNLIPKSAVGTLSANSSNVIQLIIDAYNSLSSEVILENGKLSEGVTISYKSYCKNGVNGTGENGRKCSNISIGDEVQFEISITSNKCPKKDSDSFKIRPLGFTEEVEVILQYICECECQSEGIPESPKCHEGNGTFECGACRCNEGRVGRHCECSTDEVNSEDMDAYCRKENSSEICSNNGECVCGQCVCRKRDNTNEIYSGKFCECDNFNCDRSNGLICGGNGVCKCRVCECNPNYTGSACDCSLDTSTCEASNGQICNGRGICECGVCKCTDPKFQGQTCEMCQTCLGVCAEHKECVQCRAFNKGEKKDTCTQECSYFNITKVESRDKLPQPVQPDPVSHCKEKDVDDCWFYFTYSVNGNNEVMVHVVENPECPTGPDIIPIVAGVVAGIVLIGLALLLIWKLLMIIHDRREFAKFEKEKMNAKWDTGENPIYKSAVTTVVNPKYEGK
Sequence (P13612 whole entry): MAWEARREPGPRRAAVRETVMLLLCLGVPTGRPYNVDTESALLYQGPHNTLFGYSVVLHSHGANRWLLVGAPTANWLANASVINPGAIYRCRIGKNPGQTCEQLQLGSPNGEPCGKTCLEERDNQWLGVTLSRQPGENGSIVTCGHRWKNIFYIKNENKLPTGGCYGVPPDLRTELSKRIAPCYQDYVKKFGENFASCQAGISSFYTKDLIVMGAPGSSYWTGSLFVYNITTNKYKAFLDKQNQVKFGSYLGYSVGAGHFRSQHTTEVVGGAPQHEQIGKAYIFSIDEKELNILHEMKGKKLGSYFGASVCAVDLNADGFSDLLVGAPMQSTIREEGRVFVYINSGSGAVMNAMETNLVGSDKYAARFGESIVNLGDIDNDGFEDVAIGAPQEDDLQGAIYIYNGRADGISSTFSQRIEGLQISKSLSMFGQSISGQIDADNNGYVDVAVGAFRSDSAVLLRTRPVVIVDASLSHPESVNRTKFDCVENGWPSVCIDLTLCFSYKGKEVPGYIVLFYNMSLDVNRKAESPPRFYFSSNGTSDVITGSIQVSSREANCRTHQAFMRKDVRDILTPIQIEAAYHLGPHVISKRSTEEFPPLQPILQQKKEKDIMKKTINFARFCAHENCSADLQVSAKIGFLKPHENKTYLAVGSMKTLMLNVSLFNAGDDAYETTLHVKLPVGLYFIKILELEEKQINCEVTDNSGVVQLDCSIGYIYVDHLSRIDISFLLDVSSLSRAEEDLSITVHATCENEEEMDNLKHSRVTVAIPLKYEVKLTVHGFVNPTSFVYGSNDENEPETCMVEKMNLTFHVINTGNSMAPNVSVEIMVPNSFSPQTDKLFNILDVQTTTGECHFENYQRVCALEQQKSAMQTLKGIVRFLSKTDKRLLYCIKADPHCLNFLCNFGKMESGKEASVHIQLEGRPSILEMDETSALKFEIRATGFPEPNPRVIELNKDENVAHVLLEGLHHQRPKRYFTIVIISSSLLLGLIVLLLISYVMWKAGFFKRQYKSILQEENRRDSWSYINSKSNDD
Test: Affinity for alpha4-beta1 integrin from HL60 cell lysate
Type: cell-based, HL-60
Square brackets hold non-standard residues; d marks the D form. Peptide text beside a SMILES is read from it. Thz = O=C(O)[C@@H]1CSCN1

{"molecule": "CC(=O)N1CSC[C@H]1C(=O)N[C@@H](CSCCCNC(=O)C12CC3CC(CC(C3)C1)C2)C(=O)O", "IC50 / nM": 90}
{"molecule": "CC(=O)N1CSC[C@@H]1C(=O)N[C@@H](Cc1ccc(OC(=O)C23CC4CC(CC(C4)C2)C3)cc1)C(=O)O", "IC50 / nM": 12}
{"molecule": "CC(=O)N1CSC[C@@H]1C(=O)N[C@@H](Cc1ccc(OCc2c(Cl)cc(Cl)cc2Cl)cc1)C(=O)O", "IC50 / nM": 9}
{"molecule": "COc1ccc(C[C@H](NC(=O)[C@@H]2CSCN2C(C)=O)C(=O)O)cc1 (Ac-[Thz]-Tyr(Me)-OH)", "IC50 / nM": 310}

###

Below: a set of entries, each annotated with reported pIC50.
Molecular target: Integrin alpha-4/beta-1 (Homo sapiens, UniProt P05556+P13612)
Experiment: Affinity for alpha4-beta1 integrin from HL60 cell lysate
Assay type: cell-based, HL-60
pIC50: −log10 of the molar value. Square brackets hold non-standard residues; d marks the D form. Peptide text beside a SMILES is read from it. Thz = O=C(O)[C@@H]1CSCN1

{"molecule": "COc1cccc(OC)c1COc1ccc(C[C@H](NC(=O)[C@H]2CSCN2C(C)=O)C(=O)O)cc1", "pIC50": 8.70}
{"molecule": "CC(=O)N1CSC[C@@H]1C(=O)N[C@@H](Cc1ccc(OCc2cc(Cl)cc(Cl)c2)cc1)C(=O)O", "pIC50": 7.77}
{"molecule": "CC(=O)N1CSC[C@@H]1C(=O)N[C@@H](Cc1ccc(OCc2ccccc2C(F)(F)F)cc1)C(=O)O", "pIC50": 7.82}
{"molecule": "CC(=O)N1CSC[C@H]1C(=O)N[C@@H](Cc1ccccc1)C(=O)O (Ac-[Thz]-Phe-OH)", "pIC50": 6.44}

###

Below: a set of entries, each annotated with reported half-life.
Test: Half life stability of compound was evaluated in rat plasma
Type: ADME, organism-based

{"structure-notation": "CC(=O)N1CSC[C@@H]1C(=O)N[C@@H](Cc1ccc(OCc2c(Cl)cccc2Cl)cc1)C(=O)O", "half-life": "> 12 h"}
{"structure-notation": "CC(=O)N1CSC[C@@H]1C(=O)N[C@@H](Cc1ccc(OC(=O)c2c(Cl)cccc2Cl)cc1)C(=O)O", "half-life": "> 12 h"}
{"structure-notation": "CC(=O)N1CSC[C@@H]1C(=O)N[C@@H](Cc1ccc(OCc2ccccc2)cc1)C(=O)O", "half-life": "> 12 h"}
